Molecular target: Stromal cell-derived factor 1 (Homo sapiens, UniProt P48061, A65C/L36C)
Sequence (P48061 22-93 L57C/A86C limits assumed): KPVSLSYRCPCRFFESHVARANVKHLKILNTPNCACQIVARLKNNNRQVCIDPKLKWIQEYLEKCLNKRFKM
Metric: Kd (µM)
# value in µM; strip the unit string

[ask] Give its Kd value. Item: CC(C)O.CCCOc1ccc(C(Nc2ccc(F)cc2)P(=O)(O)O)cc1 (stereo unspecified)
[reply] 74

The reported measurements were obtained from ChEMBL document CHEMBL3817737.
